Source: patent US11827657B2

IC50 tested on JAK1 (Homo sapiens, UniProt P23458): recorded values
Sequence (P23458 whole entry, species assumed): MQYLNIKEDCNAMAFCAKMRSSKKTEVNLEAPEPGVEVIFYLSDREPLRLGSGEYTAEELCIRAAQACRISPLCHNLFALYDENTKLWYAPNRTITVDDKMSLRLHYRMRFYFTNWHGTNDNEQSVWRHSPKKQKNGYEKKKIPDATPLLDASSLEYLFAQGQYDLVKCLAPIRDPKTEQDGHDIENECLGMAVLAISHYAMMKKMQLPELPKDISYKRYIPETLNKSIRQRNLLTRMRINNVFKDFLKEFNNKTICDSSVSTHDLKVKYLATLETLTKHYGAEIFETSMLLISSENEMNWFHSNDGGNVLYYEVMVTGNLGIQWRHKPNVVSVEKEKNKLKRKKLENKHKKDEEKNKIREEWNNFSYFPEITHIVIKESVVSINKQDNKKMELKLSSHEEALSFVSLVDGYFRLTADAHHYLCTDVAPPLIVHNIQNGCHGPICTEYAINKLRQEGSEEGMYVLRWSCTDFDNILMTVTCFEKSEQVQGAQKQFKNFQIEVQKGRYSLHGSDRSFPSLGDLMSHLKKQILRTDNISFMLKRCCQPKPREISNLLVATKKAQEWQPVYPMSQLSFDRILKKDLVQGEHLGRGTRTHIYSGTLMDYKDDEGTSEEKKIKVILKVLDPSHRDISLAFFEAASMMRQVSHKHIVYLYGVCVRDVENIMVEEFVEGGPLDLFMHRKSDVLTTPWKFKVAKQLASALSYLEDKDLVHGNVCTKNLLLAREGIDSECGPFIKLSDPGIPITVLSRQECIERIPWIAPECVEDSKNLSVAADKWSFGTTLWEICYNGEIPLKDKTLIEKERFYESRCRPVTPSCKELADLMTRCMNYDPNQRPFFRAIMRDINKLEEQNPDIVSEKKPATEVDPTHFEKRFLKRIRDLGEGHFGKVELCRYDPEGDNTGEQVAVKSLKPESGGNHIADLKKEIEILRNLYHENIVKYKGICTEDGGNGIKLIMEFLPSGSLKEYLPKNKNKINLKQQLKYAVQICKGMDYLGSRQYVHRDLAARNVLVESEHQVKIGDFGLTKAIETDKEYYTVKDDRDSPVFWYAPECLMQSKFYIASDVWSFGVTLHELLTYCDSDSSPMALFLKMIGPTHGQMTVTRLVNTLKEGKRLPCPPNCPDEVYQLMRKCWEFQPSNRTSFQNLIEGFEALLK
attribute-measured: IC50

• N#C[C@@H]1CCOC[C@H]1n1cc(C(N)=O)c(Nc2cc(Cl)c3c(c2)C=CB(O)O3)n1 (single isomer, unassigned) [Example 13a] = < 10 nM
• CC1=C(C)c2cc(Nc3nn([C@@H]4COCC[C@H]4C#N)cc3C(N)=O)cc(C)c2OB1O (single isomer, unassigned) [Example 23a] = < 10 nM
• CC1=Cc2cc(Nc3nn([C@@H]4COCC[C@H]4C#N)cc3C(N)=O)cc(F)c2OB1O (single isomer, unassigned) [Example 14b] = 10 to 50 nM
